assay: chemical genetic growth profiling, strain panel (AID 1159580);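 further: tested at 20 µM; growth read once vehicle control cultures reached saturation at 30 °C; 1 = growth at the plate median or of vehicle wells; lower values mean less growth of the strain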; conditions: S. cerevisiae deletion strains, growth OD, locus YLR268W, strain sec22, stronger effect = lower value
In all, about 5,500 compounds went through this assay and about 2,000 (36%) were called active. About 18% were inconclusive and are not listed. The list shows a part of the results.

{"compound": "C=C1C2CC[C@@]3(C)[C@H](c4ccoc4)OC(=O)C[C@]13O[C@H]1CC(O)C(C)(C)C(CC(=O)OC)[C@@]21C (stereo partly specified)", "normalized growth": 1.01}
{"compound": "CCN(CC)CCOC(=O)C(c1ccccc1)c1ccccc1", "normalized growth": 0.984}
{"compound": "C=C1C2=CC(=O)O[C@@H](c3ccoc3)[C@]2(C)CCC1[C@@]1(C)C=CC(=O)C(C)(C)[C@@H]1CC(=O)OC (stereo partly specified)", "normalized growth": 0.996}
{"compound": "C=C1C2CCC3(C)C(c4ccoc4)OC(=O)CC13OC1CC(OC(C)=O)C(C)(C)C(CC(=O)OC)C12C (stereo unspecified)", "normalized growth": 0.984}
{"compound": "CCCC(C(=O)OCCN(CC)CC)(c1ccccc1)c1ccccc1", "normalized growth": 0.977}
{"compound": "C=C1C2CC[C@@]3(C)[C@H](c4ccoc4)OC(=O)C[C@]13O[C@H]1CC(=O)C(C)(C)C(CC(=O)OC)[C@@]21C (stereo partly specified)", "normalized growth": 0.984}

====

assay: chemical genetic growth profiling, strain panel (AID 1159580);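 further: tested at 20 µM; growth read once vehicle control cultures reached saturation at 30 °C; 1 = growth at the plate median or of vehicle wells; lower values mean less growth of the strain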; details: S. cerevisiae deletion strains, growth OD, locus YOL012C, strain htz1
The whole screen tested about 5,500 compounds, of which about 2,000 (36%) were called active. Roughly 18% stayed inconclusive and do not appear here. The list shows a part of the results.
Doc: threshold 1 (exclusive). Items with normalized growth beneath it return TRUE; others return FALSE.

{"compound": "COc1cc(OC)c2c3c1C(=O)c1c(OC)cc(C)c4c(OC)cc(c-3c14)C(C)(C)C2=O", "classLabel": "FALSE"}
{"compound": "Nc1ccn(C2O[C@H](CO)[C@@H](O)[C@H]2O)c(=O)n1 (stereo partly drawn)", "classLabel": "TRUE"}
{"compound": "CCCCCC1C(=O)CCC1CC(=O)OC (stereo not drawn)", "classLabel": "FALSE"}
{"compound": "CC12CC3CC(C)(C1)CC(N)(C3)C2", "classLabel": "FALSE"}
{"compound": "O=C(Nc1ccccc1)c1ccccc1O", "classLabel": "FALSE"}
{"compound": "CN(C)N=Nc1nc[nH]c1C(N)=O", "classLabel": "TRUE"}
{"compound": "O=C(Nc1ccccc1)Nc1ccccc1", "classLabel": "TRUE"}

====

assay: chemical genetic growth profiling, strain panel (AID 1159580);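 further: tested at 20 µM; growth read once vehicle control cultures reached saturation at 30 °C; 1 = growth at the plate median or of vehicle wells; lower values mean less growth of the strain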; settings: S. cerevisiae deletion strains, growth OD, locus YKR001C, strain vps1, stronger effect = lower value
Out of some 5,500 compounds screened, about 2,000 (36%) were called active. About 18% were inconclusive and are not listed. This is one part of the list.

{"compound": "Cc1cc(=O)oc2c(O)c(O)ccc12", "normalized growth": "0.99 (inactive)"}
{"compound": "S=P(N1CC1)(N1CC1)N1CC1", "normalized growth": "0.994 (inactive)"}
{"compound": "CC12CC3CC(C)(C1)CC(N)(C3)C2", "normalized growth": "1.02 (inactive)"}
{"compound": "Cc1cc(C)cc(OCC2CNC(=O)O2)c1 (configuration not stated)", "normalized growth": "1.01 (inactive)"}
{"compound": "CC(=O)O[C@H]1CC[C@]2(C)C3C(=O)[C@@H](OC(C)=O)[C@@]4(C)C(C[C@@H]5O[C@]6(CCC(C)CO6)[C@@H](C)[C@@H]54)C3CC[C@H]2C1 (some centres not stated)", "normalized growth": "0.982 (inactive)"}
{"compound": "O=c1cc(-c2ccccc2)oc2c(O)c(O)ccc12", "normalized growth": "0.89 (active)"}
{"compound": "COc1cc(OC)c(OC)cc1C=O", "normalized growth": "1.02 (inactive)"}
{"compound": "CN(C)CCOC(=O)COc1ccc(Cl)cc1", "normalized growth": "1.14 [resistant] (active)"}
{"compound": "CCN(CCCc1ccccc1)CCCc1ccccc1", "normalized growth": "1.02 (inactive)"}
{"compound": "CC1CCC2(OC1)OC1CC3C4CCC5C[C@@H](O)CCC5(C)C4=CCC3(C)C1[C@@H]2C (some centres not stated)", "normalized growth": "0.983 (inactive)"}
{"compound": "CN(C)CCOC(=O)C(c1ccccc1)C1(O)CCCC1 (configuration not stated)", "normalized growth": "1.03 (inactive)"}
{"compound": "CC(=O)O[C@H]1CC[C@]2(C)C3=CC(=O)[C@@]4(C)C(C[C@@H]5OC6(OCC(C)CC6Br)[C@@H](C)[C@@H]54)C3CC[C@H]2C1 (some centres not stated)", "normalized growth": "0.989 (inactive)"}
